Documented pIC50 across a set of compounds
- SYSTEM UNDER TEST: human 11β-HSD1 (Homo sapiens, UniProt P28845)
- Construct: expressed in transfected cells; host or cells: CHO cells (microsomes)
- Sequence (P28845 whole entry): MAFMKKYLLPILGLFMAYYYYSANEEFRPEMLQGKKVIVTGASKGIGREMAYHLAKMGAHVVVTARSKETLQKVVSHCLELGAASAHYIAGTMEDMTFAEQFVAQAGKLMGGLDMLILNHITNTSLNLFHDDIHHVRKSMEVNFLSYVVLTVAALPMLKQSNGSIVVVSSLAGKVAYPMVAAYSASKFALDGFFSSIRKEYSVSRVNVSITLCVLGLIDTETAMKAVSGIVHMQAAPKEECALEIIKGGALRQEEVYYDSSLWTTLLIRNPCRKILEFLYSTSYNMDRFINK
- MEASUREMENT DESCRIPTION: Biological Test Example 1: inhibition of microsomal preparation of 11β-HSD1 (SPA)
- Format: biochemical
- RUN PARAMETERS: microsomes from CHO cells overexpressing human 11β-HSD1; read-out: IC50 Range
pIC50: −log10 of the molar value.
MEASURED ENDPOINT: pIC50

C[C@@H](c1ccc(-c2ccc(F)cc2)cc1)N1CC[C@@](CC(O)CO)(c2ccc(F)cc2)NC1=O (single isomer, unassigned) [Example 9 Isomer 4]
< 7.00
C=CC[C@@]1(c2ccc(F)cc2)CCN([C@@H](C)c2ccc(Br)cc2)C(=O)N1C (single isomer, unassigned) [Example 3 Isomer 2]
> 7.00
C[C@@H](c1ccc(-c2ccc(F)cc2F)cc1)N1CC[C@](CC(O)CO)(c2ccc(F)cc2)NC1=O (single isomer, unassigned) [Example 8 Isomer 1]
> 7.00
C[C@@H](C1CCCCC1)N1CC[C@](CCCO)(c2ccccc2)NC1=O
> 7.00
COc1ccc([C@H](C)N2CC[C@](CCO)(c3ccc(F)cc3)NC2=O)cc1
> 7.00
C[C@@H](c1ccc(Br)cc1)N1CC[C@](CCCO)(c2ccc(F)cc2)N(C)C1=O (single isomer, unassigned) [Example 11 Isomer 1]
> 7.00

Origin of values: patent US9079861B2
